study system: T1, soluble human FcRn (shFcRn) (human, UniProt P55899 24-297; P61769 21-119)
T1 construct: Biotinylated for the ELISA, amine-coupled to a CM5 chip for SPR; also called biotinylated shFcRn
T1 sequence (P55899 24-297 limits assumed, chain 1 of 2): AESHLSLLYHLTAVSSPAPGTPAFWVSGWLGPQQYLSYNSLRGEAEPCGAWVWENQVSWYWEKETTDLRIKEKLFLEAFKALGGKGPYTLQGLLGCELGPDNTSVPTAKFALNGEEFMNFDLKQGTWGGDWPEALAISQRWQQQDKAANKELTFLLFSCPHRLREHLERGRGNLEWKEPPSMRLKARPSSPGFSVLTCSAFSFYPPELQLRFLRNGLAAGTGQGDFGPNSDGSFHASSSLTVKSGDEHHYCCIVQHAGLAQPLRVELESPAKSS
T1 sequence (P61769 21-119 limits assumed, chain 2 of 2): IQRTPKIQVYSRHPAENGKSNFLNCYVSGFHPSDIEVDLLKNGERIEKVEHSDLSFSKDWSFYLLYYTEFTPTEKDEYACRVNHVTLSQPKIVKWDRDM
method notes: SPR pH 6
Bridge positions count the residues as written; N and C are the ends. Square brackets hold non-standard residues; d marks the D form. Ends that are not written are not given here. NMeL = CN[C@@H](CC(C)C)C(=O)O; Pen = CC(C)(S)[C@H](N)C(=O)O; Sar = CNCC(=O)O
assay metric: pKd
FYI, pKd means -log10 of a concentration in mol per litre.

Worked examples, 2 binders total:
[
  {
    "binder": "RF[Pen]TGHF[dN][Sar][NMeL]YPC-NH2 (disulfide 3-13; N-terminus assumed; SMILES CC(C)C[C@H]1C(=O)N[C@@H](Cc2ccc(O)cc2)C(=O)N2CCC[C@H]2C(=O)N[C@H](C(N)=O)CSSC(C)(C)[C@H](NC(=O)[C@H](Cc2ccccc2)NC(=O)[C@@H](N)CCCNC(=N)N)C(=O)N[C@@H]([C@@H](C)O)C(=O)NCC(=O)N[C@@H](Cc2c[nH]cn2)C(=O)N[C@@H](Cc2ccccc2)C(=O)N[C@H](CC(N)=O)C(=O)N(C)CC(=O)N1C) [Peptide No. 243]",
    "numeric value": 5.68
  },
  {
    "binder": "RF[Pen]TGHF[dT][Sar][NMeL]YPC-NH2 (disulfide 3-13; N-terminus assumed; SMILES CC(C)C[C@H]1C(=O)N[C@@H](Cc2ccc(O)cc2)C(=O)N2CCC[C@H]2C(=O)N[C@H](C(N)=O)CSSC(C)(C)[C@H](NC(=O)[C@H](Cc2ccccc2)NC(=O)[C@@H](N)CCCNC(=N)N)C(=O)N[C@@H]([C@@H](C)O)C(=O)NCC(=O)N[C@@H](Cc2c[nH]cn2)C(=O)N[C@@H](Cc2ccccc2)C(=O)N[C@H]([C@H](C)O)C(=O)N(C)CC(=O)N1C) [Peptide No. 240]",
    "numeric value": 5.32
  }
]

Now consider the entry below.
// RF[Pen]TGHFG[Sar][NMeL]YPC-NH2 (disulfide 3-13; N-terminus assumed; SMILES CC(C)C[C@H]1C(=O)N[C@@H](Cc2ccc(O)cc2)C(=O)N2CCC[C@H]2C(=O)N[C@H](C(N)=O)CSSC(C)(C)[C@H](NC(=O)[C@H](Cc2ccccc2)NC(=O)[C@@H](N)CCCNC(=N)N)C(=O)N[C@@H]([C@@H](C)O)C(=O)NCC(=O)N[C@@H](Cc2c[nH]cn2)C(=O)N[C@@H](Cc2ccccc2)C(=O)NCC(=O)N(C)CC(=O)N1C) [Peptide No. 235] : pKd value = 7.51
